self-splicing fitness (ln) for assorted sequences
experiment: self-splicing fitness, log relative to wild type (ln ratio); higher = more splicing; Tetrahymena group I intron in knt gene, E. coli kanamycin selection, DiMSum; sequences stand for … in CUCUCU…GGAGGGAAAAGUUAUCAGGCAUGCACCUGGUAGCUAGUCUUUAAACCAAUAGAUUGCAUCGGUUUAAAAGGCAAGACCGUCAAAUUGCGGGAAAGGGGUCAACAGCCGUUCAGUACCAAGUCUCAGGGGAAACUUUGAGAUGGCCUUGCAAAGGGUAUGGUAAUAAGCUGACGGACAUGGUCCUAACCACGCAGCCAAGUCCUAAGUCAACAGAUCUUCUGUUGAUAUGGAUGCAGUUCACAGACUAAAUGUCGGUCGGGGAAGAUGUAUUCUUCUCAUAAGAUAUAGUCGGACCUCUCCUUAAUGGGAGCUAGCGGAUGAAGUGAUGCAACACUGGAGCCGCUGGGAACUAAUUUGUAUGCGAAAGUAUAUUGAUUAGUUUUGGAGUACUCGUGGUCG; details: 37 °C;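 note: selection with 25 µg/mL kanamycin versus none on LB agar overnight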
Endpoint label: self-splicing fitness (ln)

[
  {
    "Sequence record": "AGGCAGCAAUAUUACGUGGC",
    "Measured": -2.58
  },
  {
    "Sequence record": "UUAAAGCAAUAUUACGCACC",
    "Measured": -0.676
  },
  {
    "Sequence record": "GUAGAGCAAUAUUACGGGCG",
    "Measured": -1.19
  },
  {
    "Sequence record": "AACAAGCAAUAUUACGAUGG",
    "Measured": -1.72
  },
  {
    "Sequence record": "AAAGAGCAAUAUUACGUGGU",
    "Measured": -3.08
  },
  {
    "Sequence record": "GCCUAGCAAUAUUACGCGGC",
    "Measured": -2
  },
  {
    "Sequence record": "UGCUAGCAAUAUUACGAUAU",
    "Measured": -2.25
  },
  {
    "Sequence record": "CUAUAGCAAUAUUACGUAAU",
    "Measured": -3.88
  },
  {
    "Sequence record": "GGCGAGCAAUAUUACGUCGA",
    "Measured": -0.47
  },
  {
    "Sequence record": "CGCCAGCAAUAUUACGCUUG",
    "Measured": -1.88
  },
  {
    "Sequence record": "UGGAAGCAAUAUUACGUCGG",
    "Measured": -0.162
  },
  {
    "Sequence record": "CAGCAGCAAUAUUACGUGGA",
    "Measured": -1.84
  },
  {
    "Sequence record": "AGAAAGCAAUAUUACGAUAC",
    "Measured": -1.54
  },
  {
    "Sequence record": "CUCGAGCAAUAUUACGCUGG",
    "Measured": -3.22
  },
  {
    "Sequence record": "CAUGAGCAAUAUUACGUCAU",
    "Measured": -1.24
  },
  {
    "Sequence record": "AACCAGCAAUAUUACGGCUU",
    "Measured": 0.209
  },
  {
    "Sequence record": "AAAUAGCAAUAUUACGUCGG",
    "Measured": -1.14
  },
  {
    "Sequence record": "GUUUAGCAAUAUUACGGCGU",
    "Measured": -0.0237
  },
  {
    "Sequence record": "GCUGAGCAAUAUUACGAUAU",
    "Measured": -1.08
  },
  {
    "Sequence record": "GAUUAGCAAUAUUACGGGUG",
    "Measured": -0.58
  },
  {
    "Sequence record": "CCGAAGCAAUAUUACGCACA",
    "Measured": -2.59
  },
  {
    "Sequence record": "AGAGAGCAAUAUUACGGACC",
    "Measured": -1.05
  },
  {
    "Sequence record": "GAUCAGCAAUAUUACGGAUC",
    "Measured": -2.49
  },
  {
    "Sequence record": "AGUGAGCAAUAUUACGGACG",
    "Measured": -1.45
  },
  {
    "Sequence record": "GUACAGCAAUAUUACGCUUG",
    "Measured": -1.1
  },
  {
    "Sequence record": "UCAGAGCAAUAUUACGAUAG",
    "Measured": -2.38
  },
  {
    "Sequence record": "AGGUAGCAAUAUUACGAGUC",
    "Measured": -2.49
  },
  {
    "Sequence record": "UUGCAGCAAUAUUACGCUAG",
    "Measured": -2.44
  },
  {
    "Sequence record": "UUACAGCAAUAUUACGUGAU",
    "Measured": -2.37
  },
  {
    "Sequence record": "CUCAAGCAAUAUUACGGCUA",
    "Measured": -2.22
  },
  {
    "Sequence record": "CAACAGCAAUAUUACGGAGC",
    "Measured": -3.18
  },
  {
    "Sequence record": "GAUCAGCAAUAUUACGUGCG",
    "Measured": -0.336
  },
  {
    "Sequence record": "AUAAAGCAAUAUUACGUAAA",
    "Measured": -1.03
  },
  {
    "Sequence record": "GCCGAGCAAUAUUACGUAGG",
    "Measured": -0.729
  },
  {
    "Sequence record": "CCACAGCAAUAUUACGUGCC",
    "Measured": -2.36
  },
  {
    "Sequence record": "GCAAAGCAAUAUUACGGGCG",
    "Measured": -0.696
  },
  {
    "Sequence record": "UUCCAGCAAUAUUACGCCAG",
    "Measured": -0.95
  },
  {
    "Sequence record": "UUAAAGCAAUAUUACGCUGU",
    "Measured": -1.68
  },
  {
    "Sequence record": "ACUCAGCAAUAUUACGUAAU",
    "Measured": -0.31
  },
  {
    "Sequence record": "AGACAGCAAUAUUACGUCGA",
    "Measured": -1.07
  },
  {
    "Sequence record": "GCAUAGCAAUAUUACGCCCG",
    "Measured": -0.11
  },
  {
    "Sequence record": "ACCUAGCAAUAUUACGGGUG",
    "Measured": -1.1
  },
  {
    "Sequence record": "GUUAAGCAAUAUUACGUAUC",
    "Measured": -1.46
  },
  {
    "Sequence record": "GGCGAGCAAUAUUACGUUCU",
    "Measured": -0.335
  },
  {
    "Sequence record": "CUGAAGCAAUAUUACGCAGC",
    "Measured": -1.77
  },
  {
    "Sequence record": "GGCCAGCAAUAUUACGGGAG",
    "Measured": -0.796
  },
  {
    "Sequence record": "GCUCAGCAAUAUUACGAGAA",
    "Measured": 0.0758
  },
  {
    "Sequence record": "CAGGAGCAAUAUUACGUAAC",
    "Measured": -2.74
  },
  {
    "Sequence record": "CUGUAGCAAUAUUACGGACG",
    "Measured": -0.319
  },
  {
    "Sequence record": "CAGCAGCAAUAUUACGUAGU",
    "Measured": -2.56
  },
  {
    "Sequence record": "AGUUAGCAAUAUUACGAAAC",
    "Measured": -0.856
  },
  {
    "Sequence record": "CGAAAGCAAUAUUACGUACG",
    "Measured": -1.27
  },
  {
    "Sequence record": "GUGAAGCAAUAUUACGGGUU",
    "Measured": -1.4
  },
  {
    "Sequence record": "GUUUAGCAAUAUUACGGCGC",
    "Measured": 0.337
  },
  {
    "Sequence record": "GCCCAGCAAUAUUACGAGGC",
    "Measured": -2.5
  },
  {
    "Sequence record": "CCAAAGCAAUAUUACGAGGA",
    "Measured": -2.79
  },
  {
    "Sequence record": "AUACAGCAAUAUUACGGUAG",
    "Measured": -0.891
  },
  {
    "Sequence record": "UGCAAGCAAUAUUACGAACG",
    "Measured": 0.961
  },
  {
    "Sequence record": "GUUUAGCAAUAUUACGGUCC",
    "Measured": -0.109
  },
  {
    "Sequence record": "UUCUAGCAAUAUUACGGCCG",
    "Measured": -1.56
  },
  {
    "Sequence record": "GAAAAGCAAUAUUACGACAU",
    "Measured": 0.116
  },
  {
    "Sequence record": "AUUGAGCAAUAUUACGGUCC",
    "Measured": -1.58
  },
  {
    "Sequence record": "UGAAAGCAAUAUUACGUCAC",
    "Measured": -2.2
  },
  {
    "Sequence record": "UAUCAGCAAUAUUACGAACG",
    "Measured": 0.157
  },
  {
    "Sequence record": "CCUAAGCAAUAUUACGUAAC",
    "Measured": -1.77
  },
  {
    "Sequence record": "AUACAGCAAUAUUACGACCG",
    "Measured": -0.49
  },
  {
    "Sequence record": "CGCGAGCAAUAUUACGCUAC",
    "Measured": -2.08
  }
]

Provenance of the data: the supplement of paper PMC7877785
